System: IGROV1 ovarian
Test: NCI tumour cell line growth inhibition, 48 h
I'd be grateful if you could share measured GI50 for these entries.

Param item = `CN(C)c1ccc(-c2cc(-c3cccc(NS(C)(=O)=O)c3)nc(N)c2C#N)cc1` ; retrieve measured GI50.
62.4 nM

Next record, please: `CC(=O)Nc1ccc(/C=C/C(=O)c2sc(-n3nc(-c4ccccc4)cc3-c3ccccc3)nc2C)cc1`
> 100000 nM

Next record, please: `CCn1nc(C#Cc2c(C)ccc3c(Nc4ccc(Cl)cc4)nccc23)c2c(N)ncnc21`
3090 nM

Next record, please: `COc1cnc2c(c1)C(=O)c1c-2n(CCCN2CCNCC2)c(=O)c2cc(F)ccc12`
478 nM

###

Test system: TK-10 renal
Experiment: NCI tumour cell line growth inhibition, 48 h
assayMetric: TGI

TK-10 renal / TGI / `COc1cnc2c(c1)C(=O)c1c-2n(CCCN2CCNCC2)c(=O)c2cc(F)ccc12` : value?
1.43 µM

Next record, please: `COc1ccc(-c2cc(-c3ccc(Cl)cc3)c(C#N)c(=O)n2CCCCCC(=O)Nc2ccccc2N)cc1`
> 100 µM

Next record, please: `CC(=O)NNc1nc(C)c(C(=O)NNC(=O)C(=O)Nc2ccc(C)cc2[N+](=O)[O-])s1`
> 100 µM

Next record, please: `N#CSc1c[nH]c2cccc(/C=C/C(=O)/C=C(O)/C=C/c3cccc4[nH]cc(SC#N)c34)c12`
2.51 µM

Next record, please: `COc1cc(Br)c(C2OCCCO2)cc1OCc1ccccc1`
> 100 µM

Next record, please: `CCc1ccc2cc3c(ccc4ccccc43)c3c2c1CC3`
> 100 µM

Next record, please: `N#CCC1CCN(c2nc(Nc3ccc(N4CCC(O)CC4)cc3)c3c(=O)[nH]ncc3n2)CC1`
> 100 µM

Next record, please: CC1SC(c2ccc(OCc3ccccc3)cc2)N(NC(=O)C(O)(c2ccccc2)c2ccccc2)C1=O (stereo not given)
14.3 µM

Next record, please: O=C(O)OC12CCCCCC1C(=O)C1CCCCC12 (stereo not given)
> 100 µM

Next record, please: `FC(F)(F)c1ccc(-c2cnc(-c3nn[nH]n3)nc2NC2CCCCCC2)cc1`
> 10 µM

###

System: KM12 colon
Experiment: NCI tumour cell line growth inhibition, 48 h; in the data active means GI50 below about 0.43 µM; inactive means the rest
Valid outcomes are listed here; reply with one: active, inactive

Kindly provide the recorded test outcome for the following compound: `N=C(N)c1ccc(-c2ccc(-c3cccs3)s2)cc1F`
inactive

Next record, please: `N#CCC1CCN(c2nc(Nc3ccc(N4CCC(O)CC4)cc3)c3c(=O)[nH]ncc3n2)CC1`
active

Next record, please: `COc1cnc2c(c1)C(=O)c1c-2n(CCCN2CCNCC2)c(=O)c2cc(F)ccc12`
active

Next record, please: N/C(=N\O)c1cn(C2OC(CO)C(O)C2O)c2ncnc(N)c12 (centres undefined)
active

Next record, please: `CN1CC[C@H](N(C)C(=O)N2CC(c3cc(F)ccc3F)=C[C@@]2(CO)c2ccccc2)[C@H](F)C1`
active

Next record, please: `CC1(C)CCC(c2ccc(Cl)cc2)=C(CN2CCN(c3ccc(C(=O)NS(=O)(=O)c4ccc(N[C@H](CCN5CCOCC5)CSc5ccccc5)c(S(=O)(=O)C(F)(F)F)c4)cc3)CC2)C1`
inactive

Next record, please: `COc1cc2nc(NC3CCC3)nc(NC3CCN(C(C)C)CC3)c2cc1OC`
inactive

Next record, please: `CCc1ccc2cc3c(ccc4ccccc43)c3c2c1CC3`
inactive

Next record, please: CC(=O)Nc1ccc(S(=O)(=O)N2C(=O)CCC2C(=O)Nc2ccccc2)cc1 (centres undefined)
active

Next record, please: Cc1ccccc1C1N=C2Oc3ccccc3C=C2C(=O)N1 (centres undefined)
inactive

Next record, please: CC1SC(c2ccc(OCc3ccccc3)cc2)N(NC(=O)C(O)(c2ccccc2)c2ccccc2)C1=O (centres undefined)
inactive

Next record, please: `C=C1C(=O)O[C@H]2[C@H]1CC/C(COC(=O)NCc1ccc(Cn3c(=O)sn(CCCI)c3=O)cc1)=C\CC[C@@]1(C)O[C@@H]21`
inactive

Next record, please: `C=CN(C(=O)N1CCN(c2cc3c(cc2F)c(=O)c(C(=O)O)cn3C2CC2)CC1)c1nc(-c2ccc(C)cc2)cs1`
inactive

Next record, please: `COc1ncc(-c2ccc3nc(N)n(-c4ccccc4C(F)(F)F)c(=O)c3c2)cc1S(=O)(=O)Nc1ccc(F)cc1F`
inactive

Next record, please: `CC1(C)N=C(N)N=C(N)N1c1cccc(CC(=O)Nc2ccccc2)c1`
inactive

Next record, please: CC(C)OC(=O)OCOP(=O)(OCOC(=O)OC(C)C)C1CCCN(O)C1=O (centres undefined)
inactive

Next record, please: `COc1cc(F)c(F)c(F)c1C(=O)c1cnc(NC2CCN(S(C)(=O)=O)CC2)nc1N`
inactive

Next record, please: `CCCCCCCCCCCCNC(=O)N[C@H](C(=O)N[C@H]1/C=C/OCCNC(=O)/C=C/[C@H](C(C)C)NC1=O)C(C)C`
inactive

Next record, please: `COc1cc(-c2nn(-c3cccc(NC(=O)NCCNC(=O)c4ccccc4)c3)cc2-c2ccncc2)ccc1Cl`
inactive

###

System: K-562 leukemia
Assay: NCI tumour cell line growth inhibition, 48 h
I'd be grateful if you could share measured TGI for these entries.

K-562 leukemia / TGI / `CCc1c(N=[N+]=[N-])c2ccccc2oc1=O` : value?
> 100 µM

Next record, please: `CN(C)c1ccc(-c2cc(-c3cccc(NS(C)(=O)=O)c3)nc(N)c2C#N)cc1`
48.5 µM

Next record, please: Nc1nc(N)c2nc(CNc3ccc(C(=O)NC(CCC(=O)O)C(=O)O)cc3)cnc2n1 (stereo unspecified)
> 100 µM

Next record, please: `C#CC[C@]12CC(=O)CC[C@H]1CC1(C2)OCCO1`
> 100 µM

Next record, please: `O=C(/C=C/c1c[nH]c2ccccc12)c1ccccc1O`
> 100 µM

Next record, please: Cc1cc(Br)ccc1N=NC1C(=O)ON=C1c1ccccc1 (stereo unspecified)
> 100 µM

Next record, please: `CC(=O)OC1=C(c2ccccc2)S(=O)(=O)c2ccccc21`
> 100 µM

Next record, please: `Cc1ccc(CNc2ccc(Cl)cc2NCc2ccc(C)c(O)c2)cc1O`
18 µM

Next record, please: `COc1cc(CCNC2=CC(=O)c3ncccc3C2=O)ccc1O`
17.7 µM

Next record, please: Cc1ccccc1C1N=C2Oc3ccccc3C=C2C(=O)N1 (stereo unspecified)
> 100 µM

Next record, please: `O=C(NNC(=O)c1cc2ccccc2[nH]1)c1cc2ccccc2[nH]1`
> 100 µM

Next record, please: `N#CSc1c[nH]c2cccc(/C=C/C(=O)/C=C(O)/C=C/c3cccc4[nH]cc(SC#N)c34)c12`
> 33.3 µM

Next record, please: CC1CC(=O)C(CC(=O)O)[C@H]1C(C(=O)C(=O)Nc1cc(Cl)ccc1Cl)[N+](=O)[O-] (stereo partly specified)
> 100 µM

Next record, please: O=[N+]([O-])C1=Cc2c(O)ccc(O)c2C2c3ccccc3NC12 (stereo unspecified)
> 100 µM

Next record, please: `CCOC(=O)c1c2ccccc2n2c(=O)n(-c3ccccc3)nnc12`
47.3 µM

Next record, please: `O=c1c2cc(F)ccc2sc2c(NCCCNCCO)nc3ccc(F)cc3c12`
6.68 µM

Next record, please: `O=C1/C(=C/c2ccc(Cl)cc2)NC(=S)N1CN1CCCCC1`
> 100 µM

Next record, please: `Cc1nnc(NS(=O)(=O)c2ccc(N=Nc3c(O)c(C(=O)O)cc4ccccc34)cc2)s1`
> 100 µM

Next record, please: COc1cc(CC2c3cc(OC)c(OC)cc3CCN2C)c(C(=O)O)cc1OC (stereo unspecified)
> 100 µM

Next record, please: `CCN(CC)c1ccc(C=C2C(=O)NC(=S)NC2=O)cc1`
10.7 µM

Next record, please: `C=C(C)[C@@H]1CC[C@]2(C(=O)OC)CC[C@]3(C)[C@H](CC[C@@H]4[C@@]5(C)CC/C(=N\OCCC(=NCCC#N)NOCCC#N)C(C)(C)[C@@H]5CC[C@]43C)[C@@H]12`
> 50 µM

###

Test system: T-47D breast
Experiment: NCI tumour cell line growth inhibition, 48 h
Where a SMILES comes first, the peptide text is derived from it. The star is where a group is joined. Boc = CC(C)(C)OC(=O)*; OtBu = CC(C)(C)O*
I'd be grateful if you could share measured TGI for these entries.

Param item = `O=[N+]([O-])c1ccc(-c2ccc([C@H]3CC(c4cc(F)c(Cl)cc4Cl)=NN3)o2)cc1` ; retrieve measured TGI.
61.8 µM

Next record, please: `COc1ccc(N(c2ccc(C#N)cc2)c2ccc(C#N)cc2)cc1`
77.6 µM

Next record, please: NC(C(=O)O)C(O)c1cnc[nH]1 (stereo not drawn)
> 100 µM

Next record, please: `COC(=O)[C@@H](C)C[C@H](Cc1ccccc1)NC(=O)c1nc([C@@H](C[C@H](C(C)C)N(C)C(=O)[C@@H](NC(=O)[C@H]2CC(=O)CCN2C)C(C)C)OC(C)=O)sc1C(C)C`
> 16.7 µM

Next record, please: CC(C)OC(=O)OCOP(=O)(OCOC(=O)OC(C)C)C1CCCN(O)C1=O (stereo not drawn)
> 100 µM

Next record, please: `CN(C)c1ccc(-c2cc(-c3cccc(NS(C)(=O)=O)c3)nc(N)c2C#N)cc1`
35.9 µM

Next record, please: `COc1ccc2nc3cc(Cl)ccc3c(NCCCN(C)CCCNc3ccc4ncn5c6ccccc6c(=O)c3c45)c2c1`
> 17.3 µM

Next record, please: `Nc1ccc(Oc2ccc(C3(c4ccc(Oc5ccc(N)c(O)c5)cc4)C4CC5CC(C4)CC3C5)cc2)cc1O`
> 77.2 µM

Next record, please: `COc1cc(Nc2nc(NS(=O)(=O)c3cc(C)c(Cl)cc3S)n[nH]2)cc(OC)c1OC`
> 100 µM

Next record, please: `N#CCC1CCN(c2nc(Nc3ccc(N4CCC(O)CC4)cc3)c3c(=O)[nH]ncc3n2)CC1`
> 100 µM

Next record, please: `c1c[nH]c(CN2CCN(Cc3ncc[nH]3)CC2)n1`
> 100 µM

Next record, please: `CC(C)CCNC(=O)c1ccc(CNC(=O)/C=C/c2ccc3c(c2)-c2ccccc2C3)cc1`
> 100 µM

Next record, please: CCCN1CCCC(c2ccc(Nc3nc(Nc4cc(F)ccc4C(N)=O)c4cc[nH]c4n3)c(OC)c2)C1 (stereo not drawn)
7.62 µM

Next record, please: CC(C(=O)NCNC(=O)c1ccccc1)C(=O)NCc1ccccc1 (stereo not drawn)
> 100 µM

Next record, please: `CN(C)CCCCN1c2ccccc2Sc2ccc(N=[N+]=[N-])cc21`
13.5 µM

Next record, please: `COc1cc(-c2nn(-c3cccc(NC(=O)NCCNC(=O)c4ccccc4)c3)cc2-c2ccncc2)ccc1Cl`
8.79 µM

Next record, please: `CC(C)c1c(C(=O)Nc2ccccc2)c(-c2ccccc2)c(-c2ccc(F)cc2)n1CC[C@@H](O)C[C@@H](O)CC(=O)O`
> 100 µM

Next record, please: `COc1ccc2c(c1)SC1=Nc3sc4cc(OC)ccc4[n+]3CN12`
38.3 µM

Next record, please: `COC(=O)C#CC1(O)C=CC(=O)C=C1`
3.74 µM

Next record, please: `O=C1Nc2ccc(I)cc2/C1=C/c1cc(Br)c(O)c(Br)c1`
> 82.8 µM

Next record, please: COc1ccc(CCN2C(=O)C(=O)C(C(=O)c3ccccc3)C2c2ccccc2)cc1OC (stereo not drawn)
> 100 µM

Next record, please: `CC(=O)OCCn1c(Cc2ccc(Cl)cc2)nn(C(C)=O)c1=O`
> 100 µM

Next record, please: `Cc1c(CNc2ccc(Cl)c(Cl)c2Cl)cnc2nc(N)nc(N)c12`
24.9 µM

Next record, please: `O=C(CNC(=O)c1cccc2ccccc12)Nc1ccccc1Oc1ccc(O)cc1`
> 25 µM

Next record, please: `O=C(c1ccco1)c1c(C(F)(F)F)n([O-])c2cc(Cl)c(Cl)cc2[n+]1=O`
15.3 µM

Next record, please: `COc1cc(/C=C2\C(=O)Nc3ccc(O)cc32)cc(OC)c1OC`
> 100 µM

Next record, please: `CC1(C)N=C(N)N=C(N)N1c1cccc(CC(=O)Nc2ccccc2)c1`
> 100 µM

Next record, please: `COc1ncc(-c2ccc3nc(N)n(-c4ccccc4C(F)(F)F)c(=O)c3c2)cc1S(=O)(=O)Nc1ccc(F)cc1F`
> 100 µM

Next record, please: `C/C(=C/C(=O)N(C)c1ccccc1Cl)O[Si](C(C)C)(C(C)C)C(C)C`
> 100 µM

Next record, please: `C=C(C)[C@@H]1CC[C@]2(C(=O)OC)CC[C@]3(C)[C@H](CC[C@@H]4[C@@]5(C)CC/C(=N\OCCC(=NCCC#N)NOCCC#N)C(C)(C)[C@@H]5CC[C@]43C)[C@@H]12`
> 50 µM

Next record, please: CC(C)(C)OC(=O)CC(NC(=O)OC(C)(C)C)C(=O)NC(Cc1ccccc1)C(N)=O (stereo not drawn) (Boc-Asp(OtBu)-Phe-NH2; configuration not given here)
> 100 µM

Next record, please: O=[N+]([O-])C1=Cc2c(O)ccc(O)c2C2c3ccccc3NC12 (stereo not drawn)
> 55.8 µM

Next record, please: CC1SC(c2ccc(OCc3ccccc3)cc2)N(NC(=O)C(O)(c2ccccc2)c2ccccc2)C1=O (stereo not drawn)
14.9 µM

Next record, please: `C[N+](C)(C)CC(=O)N/N=C\c1c(O)ccc2ccccc12`
> 100 µM

Next record, please: `Cc1ccc(Nc2nc3ccccc3nc2NS(=O)(=O)c2ccc(N)cc2)cc1`
> 100 µM

Next record, please: `CCN(CC)c1ccc(C=C2C(=O)NC(=S)NC2=O)cc1`
25.7 µM

Next record, please: FC(F)(F)c1ccc2c(c1)nc(Cc1ccc(Cl)cc1)n2CC1CCCN2CCCCC12 (stereo not drawn)
19.6 µM

Next record, please: COC(=O)[C@@H](N1C(=O)c2ccccc2C1=O)C1(C)CC(Cl)=NO1 (stereo partly drawn)
> 100 µM
